All values here come from patent US20230357429A1.

TARGET OF ASSAY: T1, TBD-11 (HC R98A)
T1 construct: anti-TROP2 Fab, CDR3 HC alanine mutant
T1 sequence (VH, as listed by the source, chain 1 of 2): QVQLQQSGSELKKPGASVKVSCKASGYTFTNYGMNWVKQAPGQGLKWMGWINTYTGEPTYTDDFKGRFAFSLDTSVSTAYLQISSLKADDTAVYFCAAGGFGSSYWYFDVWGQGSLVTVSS
T1 sequence (VL, as listed by the source, chain 2 of 2): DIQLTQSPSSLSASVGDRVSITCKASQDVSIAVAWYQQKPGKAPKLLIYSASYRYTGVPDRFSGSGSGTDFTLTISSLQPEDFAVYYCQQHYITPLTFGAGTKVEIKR
ASSAY PROTOCOL: competition ELISA, Fab on captured TROP2
pIC50: −log10 of the molar value.
TEST READOUT: pIC50

Here are 3 binders together with their reported answers.
{"BINDER": "VEFCKQWTWFGCMT (mask peptide for the TROP2 Fab) [Peptide-44]", "pIC50": 5.45}
{"BINDER": "VDFCYQYGWPICSRVD (mask peptide for the TROP2 Fab) [Peptide-45]", "pIC50": 3.39}
{"BINDER": "IDFCLLYKWPVCEL (mask peptide for the TROP2 Fab) [Peptide-49]", "pIC50": 5.20}

[P] VDFCGLYHWPICYQ (mask peptide for the TROP2 Fab) [Peptide-8]
[Q] VDFCALYHWPVCGL (mask peptide for the TROP2 Fab) [Peptide-61]
Identify the item whose pIC50 is the smaller number: P or Q Output the label that corresponds to your choice. Q

[1] VDFCYQYAWPVCSTGD (mask peptide for the TROP2 Fab) [Peptide-52]
[2] VDFCGLYHWPICYQV (mask peptide for the TROP2 Fab) [Peptide-51]
Identify the item whose pIC50 is the smaller number: 1 or 2 Output the label that corresponds to your choice. 1
